subject.of.test: Calcium/calmodulin-dependent protein kinase type 1D (Homo sapiens) (UniProt Q8IU85)
Sequence (Q8IU85 whole entry, looked up): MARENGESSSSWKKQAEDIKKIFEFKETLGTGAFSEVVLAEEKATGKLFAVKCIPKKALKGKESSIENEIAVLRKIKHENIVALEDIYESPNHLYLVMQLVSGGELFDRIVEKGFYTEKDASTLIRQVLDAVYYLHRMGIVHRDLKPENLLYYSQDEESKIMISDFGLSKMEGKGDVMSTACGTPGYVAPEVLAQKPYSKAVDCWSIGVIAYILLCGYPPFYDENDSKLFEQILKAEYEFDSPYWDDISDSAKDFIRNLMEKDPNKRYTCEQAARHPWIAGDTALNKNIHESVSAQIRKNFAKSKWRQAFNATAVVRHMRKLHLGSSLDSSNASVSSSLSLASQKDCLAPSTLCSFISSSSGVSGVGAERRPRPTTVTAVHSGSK
condition.summary: at 0.1 µM

[
  {
    "structure.string": "Nc1nccc(C#Cc2cncnc2Nc2ccc(OCc3cccc(F)c3)c(Cl)c2)n1",
    "subject.of.test": "Calcium/calmodulin-dependent protein kinase type 1D (Homo sapiens) (UniProt Q8IU85)",
    "inhibition / %": -0.54
  },
  {
    "structure.string": "CCn1c(-c2nonc2N)nc2c(C#CC(C)(C)O)nc(OCCNC)cc21",
    "subject.of.test": "Calcium/calmodulin-dependent protein kinase type 1D (Homo sapiens) (UniProt Q8IU85)",
    "inhibition / %": 1.21
  },
  {
    "structure.string": "NS(=O)(=O)c1ccc(NC=C2C(=O)Nc3ccc4ncsc4c32)cc1",
    "subject.of.test": "Calcium/calmodulin-dependent protein kinase type 1D (Homo sapiens) (UniProt Q8IU85)",
    "inhibition / %": 2.99
  },
  {
    "structure.string": "O=C1Nc2ccc(-c3cccnc3)cc2C1=Cc1cc(Br)c(O)c(Br)c1",
    "subject.of.test": "Calcium/calmodulin-dependent protein kinase type 1D (Homo sapiens) (UniProt Q8IU85)",
    "inhibition / %": 1.08
  },
  {
    "structure.string": "NS(=O)(=O)c1cccc(-c2cc3ccncc3cc2OCc2ccccc2)c1",
    "subject.of.test": "Calcium/calmodulin-dependent protein kinase type 1D (Homo sapiens) (UniProt Q8IU85)",
    "inhibition / %": 0.47
  },
  {
    "structure.string": "CS(=O)(=O)CCNCc1nc(-c2ccc3ncnc(Nc4ccc(OCc5cccc(C(F)(F)F)c5)cc4)c3c2)cs1",
    "subject.of.test": "Calcium/calmodulin-dependent protein kinase type 1D (Homo sapiens) (UniProt Q8IU85)",
    "inhibition / %": -0.5
  },
  {
    "structure.string": "CCS(=O)(=O)c1ccc(OC)c(Nc2nccc(N(C)c3ccc4c(C)n[nH]c4c3)n2)c1",
    "subject.of.test": "Calcium/calmodulin-dependent protein kinase type 1D (Homo sapiens) (UniProt Q8IU85)",
    "inhibition / %": 3.64
  },
  {
    "structure.string": "COC(=O)c1ccc2c(c1)C(=Cc1cc(Br)c(O)c(Br)c1)C(=O)N2",
    "subject.of.test": "Calcium/calmodulin-dependent protein kinase type 1D (Homo sapiens) (UniProt Q8IU85)",
    "inhibition / %": 0.26
  },
  {
    "structure.string": "C[C@@H](Oc1cc(-n2cnc3ccc(OC[C@@H](O)CO)cc32)sc1C(N)=O)c1ccccc1Cl",
    "subject.of.test": "Calcium/calmodulin-dependent protein kinase type 1D (Homo sapiens) (UniProt Q8IU85)",
    "inhibition / %": -0.01
  },
  {
    "structure.string": "COc1cc(/C=N/Nc2ncnc3c2cnn3C(C)C)ccc1O",
    "subject.of.test": "Calcium/calmodulin-dependent protein kinase type 1D (Homo sapiens) (UniProt Q8IU85)",
    "inhibition / %": 1.23
  },
  {
    "structure.string": "NS(=O)(=O)c1cccc(Nc2cc(-c3ccc(F)cc3)n[nH]2)c1",
    "subject.of.test": "Calcium/calmodulin-dependent protein kinase type 1D (Homo sapiens) (UniProt Q8IU85)",
    "inhibition / %": -0.34
  },
  {
    "structure.string": "Cc1ccc(Nc2ccnc(Nc3cccc(C(N)=O)c3)n2)cc1O",
    "subject.of.test": "Calcium/calmodulin-dependent protein kinase type 1D (Homo sapiens) (UniProt Q8IU85)",
    "inhibition / %": 1.34
  },
  {
    "structure.string": "CCOc1nccc2c1nc(-c1nonc1N)n2CC",
    "subject.of.test": "Calcium/calmodulin-dependent protein kinase type 1D (Homo sapiens) (UniProt Q8IU85)",
    "inhibition / %": 0.39
  },
  {
    "structure.string": "CN(c1ccc(NC(=O)Nc2ccc(OC(F)(F)F)cc2)cc1)c1ccnc(Nc2cccc(S(N)(=O)=O)c2)n1",
    "subject.of.test": "Calcium/calmodulin-dependent protein kinase type 1D (Homo sapiens) (UniProt Q8IU85)",
    "inhibition / %": -0.31
  },
  {
    "structure.string": "N#Cc1c(NC(=O)c2ccccc2F)sc2c1CCCC2",
    "subject.of.test": "Calcium/calmodulin-dependent protein kinase type 1D (Homo sapiens) (UniProt Q8IU85)",
    "inhibition / %": -0.22
  },
  {
    "structure.string": "COC(=O)Nc1nc2cc(Oc3ccc(NC(=O)Nc4cccc(Br)c4)cc3)ccc2[nH]1",
    "subject.of.test": "Calcium/calmodulin-dependent protein kinase type 1D (Homo sapiens) (UniProt Q8IU85)",
    "inhibition / %": 1.16
  },
  {
    "structure.string": "FC(F)(F)c1ccc(-c2nn3ncccc3c2-c2ccnc(Nc3ccc4c(c3)OCCO4)n2)cc1",
    "subject.of.test": "Calcium/calmodulin-dependent protein kinase type 1D (Homo sapiens) (UniProt Q8IU85)",
    "inhibition / %": 2.95
  },
  {
    "structure.string": "COc1cccc(-n2nc(C)c3c(N/N=C(\\C)c4ccncc4)ncnc32)c1",
    "subject.of.test": "Calcium/calmodulin-dependent protein kinase type 1D (Homo sapiens) (UniProt Q8IU85)",
    "inhibition / %": -0.6
  },
  {
    "structure.string": "OCc1ccc(-c2nc(-c3ccccn3)c(-c3ccc4c(c3)OCO4)[nH]2)cc1",
    "subject.of.test": "Calcium/calmodulin-dependent protein kinase type 1D (Homo sapiens) (UniProt Q8IU85)",
    "inhibition / %": 0.54
  },
  {
    "structure.string": "O=S(=O)(CCOCc1ccc(-c2ccc3ncnc(Nc4ccc(OCc5cccc(F)c5)c(Cl)c4)c3c2)o1)c1ccccc1",
    "subject.of.test": "Calcium/calmodulin-dependent protein kinase type 1D (Homo sapiens) (UniProt Q8IU85)",
    "inhibition / %": 0
  }
]

====

subject.of.test: Tyrosine-protein kinase Blk (Homo sapiens) (UniProt P51451)
Sequence (P51451 2-505 limits assumed): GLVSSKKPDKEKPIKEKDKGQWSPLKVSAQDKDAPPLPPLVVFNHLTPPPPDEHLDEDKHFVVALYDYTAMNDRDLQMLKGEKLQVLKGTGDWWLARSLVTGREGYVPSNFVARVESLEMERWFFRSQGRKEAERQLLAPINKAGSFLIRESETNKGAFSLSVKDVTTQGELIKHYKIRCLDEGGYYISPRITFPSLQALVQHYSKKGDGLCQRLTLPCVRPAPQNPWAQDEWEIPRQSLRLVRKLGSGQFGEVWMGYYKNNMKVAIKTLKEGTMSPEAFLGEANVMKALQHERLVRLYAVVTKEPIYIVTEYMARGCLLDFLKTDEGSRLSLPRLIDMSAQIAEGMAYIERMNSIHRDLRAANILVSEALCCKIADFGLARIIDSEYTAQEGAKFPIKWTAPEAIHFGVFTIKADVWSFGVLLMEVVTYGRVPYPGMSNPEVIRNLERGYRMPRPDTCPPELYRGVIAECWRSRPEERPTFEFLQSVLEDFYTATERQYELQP
condition.summary: at 0.1 µM
Listed here are compounds together with their documented inhibition.

[
  {
    "structure.string": "COc1cccc(-n2ncc3c(N/N=C/c4ccc(C)cc4)ncnc32)c1",
    "inhibition (%)": 3.17
  },
  {
    "structure.string": "CCn1c(-c2nonc2N)nc2c(C#CC(C)(C)O)nc(OCCNC)cc21",
    "inhibition (%)": 1.45
  },
  {
    "structure.string": "COc1cc2ncnc(Nc3ccc(C)c(O)c3)c2cc1OC",
    "inhibition (%)": 7.68
  },
  {
    "structure.string": "O=C1Nc2ccc(-c3cccnc3)cc2C1=Cc1cc(Br)c(O)c(Br)c1",
    "inhibition (%)": 2.77
  },
  {
    "structure.string": "CS(=O)(=O)Nc1cccc(-c2ccc3c(NC(=O)C4CC4)n[nH]c3c2)c1",
    "inhibition (%)": 0.09
  },
  {
    "structure.string": "CCn1c(-c2nonc2N)nc2ccc(F)cc21",
    "inhibition (%)": 3.96
  },
  {
    "structure.string": "CN1CCN(C(=O)c2ccc(NC(=O)Nc3ccc(N(C)c4ccnc(Nc5ccc(CS(C)(=O)=O)cc5)n4)cc3)cc2)CC1",
    "inhibition (%)": 2.76
  },
  {
    "structure.string": "COc1cc2ncnc(Nc3ccc4c(cnn4Cc4ccccc4)c3)c2cc1OC",
    "inhibition (%)": 13.9
  },
  {
    "structure.string": "COC(=O)Nc1nc2cc(Oc3ccc(NC(=O)Nc4cccc(Br)c4)cc3)ccc2[nH]1",
    "inhibition (%)": 3.1
  },
  {
    "structure.string": "O=C(Nc1ccc(Oc2ccc3[nH]c(NC(=O)c4ccco4)nc3c2)cc1)Nc1cc(C(F)(F)F)ccc1F",
    "inhibition (%)": -3.12
  }
]

====

subject.of.test: Cyclin-dependent kinase 2 (Homo sapiens) (UniProt P24941)
condition.summary: at 0.1 µM
measurement.label: inhibition (%)

[
  {
    "structure.string": "NS(=O)(=O)c1ccc(-c2cc3ccncc3cc2OCc2ccccc2)cc1",
    "u": "%",
    "observed.result": 1.51
  },
  {
    "structure.string": "Cc1ccc(Nc2ccnc(Nc3cccc(C(N)=O)c3)n2)cc1O",
    "u": "%",
    "observed.result": -0.93
  },
  {
    "structure.string": "COc1cc2ncnc(Nc3ccc(C)c(O)c3)c2cc1OC",
    "u": "%",
    "observed.result": 1.34
  },
  {
    "structure.string": "Nc1nccc(-c2c(-c3ccc(F)cc3)nn3cc(C(F)(F)F)ccc23)n1",
    "u": "%",
    "observed.result": -0.36
  },
  {
    "structure.string": "O=C1Nc2ccc(-c3cccnc3)cc2C1=Cc1cc(Br)c(O)c(Br)c1",
    "u": "%",
    "observed.result": 2.18
  },
  {
    "structure.string": "Nc1nccc(-c2c(-c3ccc(F)cc3)ncn2CCCN2CCOCC2)n1",
    "u": "%",
    "observed.result": 1.82
  },
  {
    "structure.string": "CN(C)C(=O)O[C@H]1CN[C@H](C#Cc2cc3ncnc(Nc4ccc(OCc5cccc(F)c5)c(Cl)c4)c3s2)C1",
    "u": "%",
    "observed.result": 1.13
  },
  {
    "structure.string": "c1ccc(Nc2ncc(-c3ccccc3)o2)cc1",
    "u": "%",
    "observed.result": 3.79
  },
  {
    "structure.string": "Cc1cc(-c2ccccn2)cc(C)c1/C=C/c1cncc(-c2nn[nH]n2)c1",
    "u": "%",
    "observed.result": 2.14
  },
  {
    "structure.string": "Cc1ccc(C(=O)NC2CC2)cc1-c1ccc2[nH]ncc2c1",
    "u": "%",
    "observed.result": 0.12
  }
]
